measurement-target: Recombinant human cathepsin A (Homo sapiens)
Construct: Recombinant human cathepsin A (residues 29-480, with a C-terminal 10-His tag); 10-His (C)
Sequence (P10619 29-326 limits assumed): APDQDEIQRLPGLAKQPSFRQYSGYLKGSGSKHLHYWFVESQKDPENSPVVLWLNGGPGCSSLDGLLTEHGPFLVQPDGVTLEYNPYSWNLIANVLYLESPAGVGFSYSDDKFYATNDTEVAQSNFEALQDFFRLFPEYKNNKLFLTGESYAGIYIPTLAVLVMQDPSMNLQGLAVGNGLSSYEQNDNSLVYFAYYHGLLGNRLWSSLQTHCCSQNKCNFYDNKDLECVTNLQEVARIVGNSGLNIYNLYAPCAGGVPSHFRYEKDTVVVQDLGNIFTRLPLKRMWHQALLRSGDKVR
Sequence (P10619 327-480 limits assumed): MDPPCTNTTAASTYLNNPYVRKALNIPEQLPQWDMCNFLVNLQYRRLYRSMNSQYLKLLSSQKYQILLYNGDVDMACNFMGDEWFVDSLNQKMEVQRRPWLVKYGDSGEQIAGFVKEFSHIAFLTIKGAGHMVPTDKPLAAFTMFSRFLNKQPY
test-description: Cathepsin A inhibitory activity
condition-summary: activated recombinant human cathepsin A 833 ng/ml, Bodipy FL-labeled bradykinin 2 μM, pH 5.5, 15 min room temperature
We begin with a simple list: items and their reported pIC50.
Friendly reminder that pIC50 comes from taking -log10 of the concentration in mol/L.

The following compounds have reported results that may help.
compound: Cc1cccc([C@H](CC(=O)O)NC(=O)c2noc(-c3cccc(F)c3F)n2)c1 [Example 39]
pIC50: 5.03
//
compound: Cc1oc(-c2ccccc2F)nc1C(=O)N[C@@H](CC(=O)O)c1ccc(F)cc1 [Example 37]
pIC50: 5.38
//
compound: Cc1ccccc1[C@H](CC(=O)O)NC(=O)c1nc(-c2ccccc2)oc1C(F)(F)F [Example 77]
pIC50: 5.72

# context switch: different compound, same pIC50
Quick check: pIC50 of Cc1oc(-c2ccccc2F)nc1C(=O)N[C@@H](CC(=O)O)c1cccc(Cl)c1 [Example 61] ? 6.72

---

measurement-target: Recombinant human cathepsin A (Homo sapiens, UniProt P10619)
Construct: Recombinant human cathepsin A (residues 29-480, with a C-terminal 10-His tag); 10-His (C)
test-description: Cathepsin A inhibitory activity
condition-summary: activated recombinant human cathepsin A 833 ng/ml, Bodipy FL-labeled bradykinin 2 μM, pH 5.5, 15 min room temperature
endpoint-label: IC50

compound: O=C(O)C[C@@H](Cc1ccccc1)NC(=O)c1nc(-c2ccccc2F)no1 [Example 11]
IC50: 4.89 µM

compound: O=C(O)C[C@H](NC(=O)c1noc(-c2ccccc2F)n1)c1cccc(C(F)(F)F)c1 [Example 81]
IC50: > 10 µM

compound: Cc1ccc([C@H](CC(=O)O)NC(=O)c2nc(C)n(-c3ccccc3Cl)n2)cc1 [Example 55]
IC50: 0.738 µM

Lab note: need IC50 for O=C(O)C[C@H](NC(=O)c1noc(-c2ccccc2F)n1)c1cccc(F)c1 [Example 18] on Recombinant human cathepsin A (Homo sapiens, UniProt P10619), anyone have it? > 10 µM

Provide the documented IC50 with Recombinant human cathepsin A (Homo sapiens, UniProt P10619) as the system for Cc1oc(-c2ccccc2F)nc1C(=O)N[C@@H](CC(=O)O)c1ccc(Cl)cc1 [Example 63] 3.41 µM

Query for Recombinant human cathepsin A (Homo sapiens, UniProt P10619): what IC50 does the record show for O=C(O)C[C@H](NC(=O)c1noc(-c2cccc(F)c2F)n1)c1ccc(F)cc1 [Example 44] ? 5.33 µM

What measured IC50 is associated with Cc1ccccc1[C@H](CC(=O)O)NC(=O)c1nc(-c2ccccc2F)oc1C [Example 25] on Recombinant human cathepsin A (Homo sapiens, UniProt P10619)? 0.311 µM

Notebook entry, Recombinant human cathepsin A (Homo sapiens, UniProt P10619) assay: IC50 of O=C(O)C[C@H](NC(=O)CCc1nc(-c2ccccc2F)no1)c1ccccc1C(F)(F)F [Example 110] = ? > 10 µM
